# System under test: human Nav1.8 (Homo sapiens (Human))
# Sequence (Q9Y5Y9 whole entry): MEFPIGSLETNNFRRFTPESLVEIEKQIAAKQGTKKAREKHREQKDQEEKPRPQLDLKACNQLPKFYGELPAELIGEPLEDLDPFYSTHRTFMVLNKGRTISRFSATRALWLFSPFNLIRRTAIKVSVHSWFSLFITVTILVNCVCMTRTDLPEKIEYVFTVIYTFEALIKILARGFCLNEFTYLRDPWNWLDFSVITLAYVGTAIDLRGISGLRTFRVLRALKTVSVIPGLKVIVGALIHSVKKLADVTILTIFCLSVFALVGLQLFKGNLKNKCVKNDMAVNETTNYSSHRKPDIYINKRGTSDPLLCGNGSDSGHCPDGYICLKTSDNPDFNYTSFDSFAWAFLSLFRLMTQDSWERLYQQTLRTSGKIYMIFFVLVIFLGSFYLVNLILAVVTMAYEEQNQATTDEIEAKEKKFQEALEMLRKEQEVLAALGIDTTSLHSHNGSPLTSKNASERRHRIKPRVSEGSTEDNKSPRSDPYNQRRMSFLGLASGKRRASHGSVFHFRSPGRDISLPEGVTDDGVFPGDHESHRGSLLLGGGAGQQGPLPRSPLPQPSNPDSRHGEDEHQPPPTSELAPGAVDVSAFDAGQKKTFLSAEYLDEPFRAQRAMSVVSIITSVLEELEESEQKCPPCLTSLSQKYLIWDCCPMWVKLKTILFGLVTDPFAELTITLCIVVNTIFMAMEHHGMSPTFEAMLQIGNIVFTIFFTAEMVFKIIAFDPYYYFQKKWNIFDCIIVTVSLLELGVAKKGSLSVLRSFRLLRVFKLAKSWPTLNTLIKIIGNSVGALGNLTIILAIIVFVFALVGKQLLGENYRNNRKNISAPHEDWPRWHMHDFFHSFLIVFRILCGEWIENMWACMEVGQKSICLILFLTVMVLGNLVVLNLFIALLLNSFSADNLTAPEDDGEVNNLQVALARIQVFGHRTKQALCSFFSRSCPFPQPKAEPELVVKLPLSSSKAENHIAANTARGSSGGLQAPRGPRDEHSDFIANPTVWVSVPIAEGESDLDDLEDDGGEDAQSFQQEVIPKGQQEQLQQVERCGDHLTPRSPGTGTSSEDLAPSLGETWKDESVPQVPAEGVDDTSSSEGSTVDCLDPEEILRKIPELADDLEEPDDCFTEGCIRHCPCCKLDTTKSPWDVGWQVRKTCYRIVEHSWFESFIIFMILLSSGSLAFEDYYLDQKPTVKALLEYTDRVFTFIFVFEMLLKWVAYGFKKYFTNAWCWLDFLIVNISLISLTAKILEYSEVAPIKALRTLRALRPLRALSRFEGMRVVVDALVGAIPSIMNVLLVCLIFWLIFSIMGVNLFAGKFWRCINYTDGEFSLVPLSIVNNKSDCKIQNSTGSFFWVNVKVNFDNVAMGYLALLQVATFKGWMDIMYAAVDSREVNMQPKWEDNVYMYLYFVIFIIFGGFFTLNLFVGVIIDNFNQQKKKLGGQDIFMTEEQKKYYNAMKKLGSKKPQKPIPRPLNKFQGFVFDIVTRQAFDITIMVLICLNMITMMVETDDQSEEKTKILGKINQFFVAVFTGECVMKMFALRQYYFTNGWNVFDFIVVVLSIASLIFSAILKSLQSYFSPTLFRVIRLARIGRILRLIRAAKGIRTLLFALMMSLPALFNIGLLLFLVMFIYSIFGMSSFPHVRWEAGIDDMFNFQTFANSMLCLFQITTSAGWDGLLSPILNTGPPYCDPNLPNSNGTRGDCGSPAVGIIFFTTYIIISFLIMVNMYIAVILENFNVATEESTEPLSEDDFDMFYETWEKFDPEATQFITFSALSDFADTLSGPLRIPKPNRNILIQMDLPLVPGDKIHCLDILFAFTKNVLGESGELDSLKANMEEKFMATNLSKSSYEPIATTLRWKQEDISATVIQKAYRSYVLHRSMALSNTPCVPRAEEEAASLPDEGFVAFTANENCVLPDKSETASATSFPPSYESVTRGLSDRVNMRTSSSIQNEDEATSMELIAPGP
# Protocol: Nav1.8 Qube® Assay (automated 384-well patch-clamp)
# Condition context: human Nav1.8 channels stably expressed in HEK 293 cells
pIC50: −log10 of the molar value.
Returns True if the recorded pIC50 is greater than or equal to 8, and False otherwise.

Known results for compounds:
Reported pIC50 at or above 8? O=C1NC[C@@H](C(=O)NC(CCc2ccc(Cl)cc2)c2ccc(F)c(Cl)c2F)O1 (single isomer, unassigned) [Example 65A]
False

Also O=C1NC[C@@H](C(=O)NC(c2ccc(F)c(Cl)c2)c2cccc(C(F)(F)F)n2)O1 (single isomer, unassigned) [Example 49B] , if possible.
False

Also O=C1NC[C@@H](C(=O)NC(c2ccc(F)c(Cl)c2)c2ccc(F)c(Cl)c2)O1 [Example 10] , if possible.
True

Next:
Reported pIC50 at or above 8? O=C1NC[C@@H](C(=O)NC(c2ccc(F)c(Cl)c2)c2ccc(Cl)cn2)O1 (single isomer, unassigned) [Example 14A]
False
